molecular target: Recombinant human his-tagged IGF 1R extracellular domain protein (human) (UniProt P08069); experiment: SPR, captured IgG, IGF-1R ECD-his analyte, dissociation pH 6
endpoint: Kd (nM)
Could you give me the number in nM? Just the number is fine.

VRDN-02535 (antibody, V domains shown) VH: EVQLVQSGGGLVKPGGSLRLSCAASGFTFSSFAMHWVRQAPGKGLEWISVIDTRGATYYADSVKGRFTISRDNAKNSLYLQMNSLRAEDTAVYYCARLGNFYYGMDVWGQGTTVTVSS VL: EIVLTQSPGTLSVSPGERATLSCRASQSIGHSLHWYQQKPGQAPRLLIKYASQSLSGIPDRFSGSGSGTDFTLTISRLEPEDFAVYYCHQSSRLPHTFGQGTKVEIK: 0.0273

With those in mind, consider the next binder.
Ask: Dear colleague, I am looking for the recorded Kd of the following binder: VRDN-02552 (antibody, V domains shown) VH: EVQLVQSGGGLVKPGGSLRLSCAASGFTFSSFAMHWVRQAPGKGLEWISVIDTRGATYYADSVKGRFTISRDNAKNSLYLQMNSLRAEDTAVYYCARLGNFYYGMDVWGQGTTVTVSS VL: EIVLTQSPGTLSVSPGERATLSCRASQSIGSSLHWYQQKPGQAPRLLIKYASQSLSGIPDRFSGSGSGTDFTLTISRLEPEDFAVYYCHQSSRLPHHFGQGTKVEIK
Result: 0.0239

Hey, just so you know, these numbers are from patent US20240343814A1.
